# EXPERIMENTAL_CONTEXT: in n-hexane, 323.15 K
PROPERTY: solubility (mole fraction)

Request: Entry "C[C@@H]1CC[C@H]2[C@@H](C)C(=O)O[C@@H]3O[C@@]4(C)CC[C@@H]1[C@]32OO4" : reported solubility (mole fraction) = ?
Response: 0.000681

---

# EXPERIMENTAL_CONTEXT: in isopropyl acetate, 319.15 K
PROPERTY: solubility (mole fraction)
Numbers only.

Request: Value lookup for solubility (mole fraction); key = "C[C@@H]1CC[C@H]2[C@@H](C)C(=O)O[C@@H]3O[C@@]4(C)CC[C@@H]1[C@]32OO4"
Response: 0.0261

---

# EXPERIMENTAL_CONTEXT: in MTBE, 289.15 K
PROPERTY: solubility (mole fraction)

Request: Query: solubility (mole fraction); subject: "C[C@@H]1CC[C@H]2[C@@H](C)C(=O)O[C@@H]3O[C@@]4(C)CC[C@@H]1[C@]32OO4"
Response: 0.00154

---

# EXPERIMENTAL_CONTEXT: in ethyl acetate, 309.15 K
PROPERTY: solubility (mole fraction)
Give bare numbers.

Request: So what does the record say about solubility (mole fraction) for "C[C@@H]1CC[C@H]2[C@@H](C)C(=O)O[C@@H]3O[C@@]4(C)CC[C@@H]1[C@]32OO4" ?
Response: 0.0283

---

# EXPERIMENTAL_CONTEXT: in n-butanol, 304.15 K
PROPERTY: solubility (mole fraction)
Give bare numbers.

Request: Can you share its solubility (mole fraction)? I mean this compound: "C[C@@H]1CC[C@H]2[C@@H](C)C(=O)O[C@@H]3O[C@@]4(C)CC[C@@H]1[C@]32OO4"
Response: 0.00394

---

# EXPERIMENTAL_CONTEXT: in ethyl acetate, 298.15 K
PROPERTY: solubility (mole fraction)
Answers are plain numbers.

Request: Recorded solubility (mole fraction) of "C[C@@H]1CC[C@H]2[C@@H](C)C(=O)O[C@@H]3O[C@@]4(C)CC[C@@H]1[C@]32OO4" , please.
Response: 0.0142

---

# EXPERIMENTAL_CONTEXT: in acetonitrile, 323.15 K
PROPERTY: solubility (mole fraction)
Answers are plain numbers.

Request: So what does the record say about solubility (mole fraction) for "C[C@@H]1CC[C@H]2[C@@H](C)C(=O)O[C@@H]3O[C@@]4(C)CC[C@@H]1[C@]32OO4" ?
Response: 0.00661

---

# EXPERIMENTAL_CONTEXT: in isopropyl acetate, 309.15 K
PROPERTY: solubility (mole fraction)
Numbers only.

Request: // query solubility (mole fraction) value for entry "C[C@@H]1CC[C@H]2[C@@H](C)C(=O)O[C@@H]3O[C@@]4(C)CC[C@@H]1[C@]32OO4"
Response: 0.0182

---

# EXPERIMENTAL_CONTEXT: in methanol, 314.15 K
PROPERTY: solubility (mole fraction)
Give bare numbers.

Request: So what does the record say about solubility (mole fraction) for "C[C@@H]1CC[C@H]2[C@@H](C)C(=O)O[C@@H]3O[C@@]4(C)CC[C@@H]1[C@]32OO4" ?
Response: 0.0038

---

# EXPERIMENTAL_CONTEXT: in isopropyl acetate, 314.15 K
PROPERTY: solubility (mole fraction)
Give bare numbers.

Request: I'd like to know its solubility (mole fraction). The compound in question is "C[C@@H]1CC[C@H]2[C@@H](C)C(=O)O[C@@H]3O[C@@]4(C)CC[C@@H]1[C@]32OO4"
Response: 0.0218

---

# EXPERIMENTAL_CONTEXT: in MTBE, 309.15 K
PROPERTY: solubility (mole fraction)

Request: I am curious: what solubility (mole fraction) value has been reported for "C[C@@H]1CC[C@H]2[C@@H](C)C(=O)O[C@@H]3O[C@@]4(C)CC[C@@H]1[C@]32OO4" ?
Response: 0.00579

---

# EXPERIMENTAL_CONTEXT: in ethanol, 323.15 K
PROPERTY: solubility (mole fraction)
Answers are plain numbers.

Request: Entry "C[C@@H]1CC[C@H]2[C@@H](C)C(=O)O[C@@H]3O[C@@]4(C)CC[C@@H]1[C@]32OO4" : reported solubility (mole fraction) = ?
Response: 0.0149

---

# EXPERIMENTAL_CONTEXT: in isopropyl acetate, 298.15 K
PROPERTY: solubility (mole fraction)
One number for each entry.

Request: // query solubility (mole fraction) value for entry "C[C@@H]1CC[C@H]2[C@@H](C)C(=O)O[C@@H]3O[C@@]4(C)CC[C@@H]1[C@]32OO4"
Response: 0.012

---

# EXPERIMENTAL_CONTEXT: in acetone, 295.15 K
PROPERTY: solubility (mole fraction)
Answers are plain numbers.

Request: Could you share which solubility (mole fraction) value was measured for "C[C@@H]1CC[C@H]2[C@@H](C)C(=O)O[C@@H]3O[C@@]4(C)CC[C@@H]1[C@]32OO4" ?
Response: 0.0073

---

# EXPERIMENTAL_CONTEXT: in ethanol, 298.15 K
PROPERTY: solubility (mole fraction)

Request: Consider the molecule "C[C@@H]1CC[C@H]2[C@@H](C)C(=O)O[C@@H]3O[C@@]4(C)CC[C@@H]1[C@]32OO4" and give its measured solubility (mole fraction).
Response: 0.00475

---

# EXPERIMENTAL_CONTEXT: in acetone, 289.15 K
PROPERTY: solubility (mole fraction)
Give bare numbers.

Request: Give the measured solubility (mole fraction) of "C[C@@H]1CC[C@H]2[C@@H](C)C(=O)O[C@@H]3O[C@@]4(C)CC[C@@H]1[C@]32OO4" .
Response: 0.0053

---

# EXPERIMENTAL_CONTEXT: in n-heptane, 284.15 K
PROPERTY: solubility (mole fraction)
Answers are plain numbers.

Request: solubility (mole fraction) lookup needed for "C[C@@H]1CC[C@H]2[C@@H](C)C(=O)O[C@@H]3O[C@@]4(C)CC[C@@H]1[C@]32OO4" , thanks.
Response: 5.1e-05

---

# EXPERIMENTAL_CONTEXT: in n-heptane, 295.15 K
PROPERTY: solubility (mole fraction)
Answers are plain numbers.

Request: Consider the compound shown here: "C[C@@H]1CC[C@H]2[C@@H](C)C(=O)O[C@@H]3O[C@@]4(C)CC[C@@H]1[C@]32OO4" What is its recorded solubility (mole fraction)?
Response: 0.000113

---

# EXPERIMENTAL_CONTEXT: in toluene, 298.15 K
PROPERTY: solubility (mole fraction)
Answers are plain numbers.

Request: Would you mind telling me what solubility (mole fraction) value was observed for "C[C@@H]1CC[C@H]2[C@@H](C)C(=O)O[C@@H]3O[C@@]4(C)CC[C@@H]1[C@]32OO4" ?
Response: 0.0369

---

# EXPERIMENTAL_CONTEXT: in toluene, 314.15 K
PROPERTY: solubility (mole fraction)
Numbers only.

Request: What value of solubility (mole fraction) has been reported for the following compound? "C[C@@H]1CC[C@H]2[C@@H](C)C(=O)O[C@@H]3O[C@@]4(C)CC[C@@H]1[C@]32OO4"
Response: 0.0843

---

# EXPERIMENTAL_CONTEXT: in toluene, 284.15 K
PROPERTY: solubility (mole fraction)
Numbers only.

Request: Could you share which solubility (mole fraction) value was measured for "C[C@@H]1CC[C@H]2[C@@H](C)C(=O)O[C@@H]3O[C@@]4(C)CC[C@@H]1[C@]32OO4" ?
Response: 0.017

---

# EXPERIMENTAL_CONTEXT: in ethanol, 284.15 K
PROPERTY: solubility (mole fraction)
Answers are plain numbers.

Request: Quick check: solubility (mole fraction) of "C[C@@H]1CC[C@H]2[C@@H](C)C(=O)O[C@@H]3O[C@@]4(C)CC[C@@H]1[C@]32OO4" ?
Response: 0.00236

---

# EXPERIMENTAL_CONTEXT: in acetonitrile, 289.15 K
PROPERTY: solubility (mole fraction)
Numbers only.

Request: Item "C[C@@H]1CC[C@H]2[C@@H](C)C(=O)O[C@@H]3O[C@@]4(C)CC[C@@H]1[C@]32OO4" has what recorded solubility (mole fraction)?
Response: 0.00112

Measured values drawn from BigSolDB 2.1 for this set.
